Numbers sourced from PubChem BioAssay (NCATS).

Biological target: Rap guanine nucleotide exchange factor 3 (Homo sapiens)
Assay: Counterscreen qHTS for antagonist of cAMP-regulated guanine nucleotide exchange factor 3 (EPAC1) (AID 1645888);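 also: fluorescence loss as bound BODIPY-GDP is released from Rap1B; % of control where 0% means no effect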
Details: Rap1B-BODIPY-GDP nucleotide exchange, fluorescence; series mostly up to 154 µM
Inconclusive results are not listed. Active and inactive are the calls of the source. Calls follow the shape of the dose curve; as a rule, active = well fitted inhibition curve with a large enough effect; inconclusive = small, poorly fitted or top-dose-only effect; inactive = no such curve, though single readings can be large or run the other way.
metric: activity change, negative = inhibition

Use the examples below as a reference point.
[in] Consider the compound O=[N+]([O-])c1cc2c(cc1CN1CCN(CCOCCO)CC1)OCO2 and give its recorded activity change, negative = inhibition.
[out] inactive

[in] Consider the compound O=C(CCCOc1ccccc1)Nc1ccc(Cl)cn1 and give its recorded activity change, negative = inhibition.
[out] inactive

[in] Consider the compound Cc1cc(C=C2C(=O)c3ccccc3C2=O)c(C)n1-c1ccc(Cl)cc1 and give its recorded activity change, negative = inhibition.
[out] -26.7% [at 30.8 µM] (inactive)

[in] Consider the compound Cc1ccc(C)c(S(=O)(=O)N2CCN(C(=O)CCNC(=O)c3ccc(Br)cc3)CC2)c1 and give its recorded activity change, negative = inhibition.
[out] inactive

Continuing:
[in] Consider the compound O=C(O)C(Cc1c[nH]c2ccccc12)NS(=O)(=O)c1ccc(Cl)c(C(F)(F)F)c1 (stereo not drawn) and give its recorded activity change, negative = inhibition.
[out] -4.37% [at 30.8 µM] (inactive)

[in] Consider the compound Cc1cc(NS(=O)(=O)c2ccc(Nc3nc(-c4ccc(C)c(C)c4)cs3)cc2)no1 and give its recorded activity change, negative = inhibition.
[out] inactive

[in] Consider the compound CCOCCCNc1nc2c(C)cccn2c(=O)c1/C=C1\SC(=S)N(CC(C)C)C1=O and give its recorded activity change, negative = inhibition.
[out] inactive

[in] Consider the compound COc1ccc([N+](=O)[O-])cc1-c1nc2ccccc2nc1-c1ccccc1 and give its recorded activity change, negative = inhibition.
[out] inactive

[in] Consider the compound CCCC[C@@H]1C=C(C(=O)O)[C@H](c2ccc(Cl)c(Cl)c2)N1S(=O)(=O)c1ccc(C)cc1 and give its recorded activity change, negative = inhibition.
[out] inactive

[in] Consider the compound CN(Cc1ccnc2ccccc12)C(=O)C1CCC(=O)N(Cc2ccccc2F)C1 (stereo not drawn) and give its recorded activity change, negative = inhibition.
[out] inactive

[in] Consider the compound O=C(NNC(=O)c1ccccc1F)c1cccc(-n2cccc2)c1 and give its recorded activity change, negative = inhibition.
[out] inactive

[in] Consider the compound O=C(N/N=C/c1cc(Cl)cc([N+](=O)[O-])c1O)NC12CC3CC(CC(C3)C1)C2 and give its recorded activity change, negative = inhibition.
[out] inactive

[in] Consider the compound CCCCCCOC(=O)C(C#N)c1nc2ccccc2nc1N1CCCCC1 (stereo not drawn) and give its recorded activity change, negative = inhibition.
[out] inactive

[in] Consider the compound O=C(CCC1N=C2c3ccccc3N=C(SCc3ccc(Cl)cc3)N2C1=O)NCc1cccs1 (stereo not drawn) and give its recorded activity change, negative = inhibition.
[out] inactive

[in] Consider the compound COc1ccc2c(Cl)c(C(=O)N/N=C3\CCCC(=O)C3)sc2c1 and give its recorded activity change, negative = inhibition.
[out] inactive

[in] Consider the compound CC(=O)N1CCc2nc3sc(C(=O)c4ccc(F)cc4)c(N)c3c(C(F)(F)F)c2C1 and give its recorded activity change, negative = inhibition.
[out] inactive

[in] Consider the compound Cc1c([N+](=O)[O-])cnc(Sc2ccccc2)c1[N+](=O)[O-] and give its recorded activity change, negative = inhibition.
[out] inactive

[in] Consider the compound COC(=O)C1=C(C)N(c2ccc(OC)cc2)C(C)=C(C(=O)OC)C1c1ccccc1 and give its recorded activity change, negative = inhibition.
[out] inactive
